# Tested on: PC-9 (EGFR exon 19 deletion)
# ASSAY: Cell antiproliferative assay (CTG, 72 h), PC-9
# Type: cell-based, human
# CONDITION DETAILS: Homo sapiens, PC-9, 72 h, Table 2, PC-9 cells
# maps each entry to its IC50

Req: Read off the recorded IC50 for CNC(=O)c1ccccc1Nc1nc(Nc2cc(C)c(N3CCN(C(=O)CN4CCC(c5ccc(NC6CCC(=O)NC6=O)cc5)CC4)CC3)cc2OC)ncc1Cl (centres unmarked)
Resp: 10 to 100 nM

Req: Read off the recorded IC50 for COc1cc(N2CCN(C(=O)CN3CCC(c4ccc(NC5CCC(=O)NC5=O)cc4)CC3)CC2)ccc1Nc1ncc(Cl)c(Nc2ccccc2C(=O)NC2CCCC2)n1 (centres unmarked)
Resp: ≥ 1000 nM

Req: Read off the recorded IC50 for CNC(=O)c1ccccc1Nc1nc(Nc2cc(C)c(N3CCN(C(=O)CN4CCC(c5ccc(NC6CCC(=O)NC6=O)cc5F)CC4)CC3)cc2OC)ncc1Br (centres unmarked)
Resp: 10 to 100 nM

Values were extracted from patent US20250129086A1.
